# EXPERIMENTAL_SYSTEM: UniProt:Q16539
# PROTOCOL: Enzymatic assay: inhibition of p38 MAP-kinase (phosphorylation of GST-tagged ATF2, chemoluminescence bead readout)
# Format: biochemical
# SETUP_CONDITIONS: inhibitor 1 μM; activated p38 MAP-kinase 1 nM; 4 h preincubation; ATP 100 μM; ATF2 10 nM; read-out: % inhibitory effect at 1 μM
QUANTITY_NAME: inhibition at 1 µM (%)

>>> df
                                   compound  result_value
0  COc1c(NC(=O)c2ccc(C)c(Oc3ccnc(CC4CCN(C)CC4)n3)c2)cc(C(C)(C)C)cc1NS(C)(=O)=O [9(1)]          99.9
1  COc1c(NC(=O)c2cc(C)cc(Oc3ccnc(CN4CCN(C)CC4)n3)c2)cc(C(C)(C)C)cc1NS(C)(=O)=O [8(28)]          81.8
2  COc1c(NC(=O)c2ccc(Cl)c(Oc3cc(NC4CCN(C)CC4)ncn3)c2)cc(C(C)(C)C)cc1NS(C)(=O)=O [4(14)]          99.4
3  COc1c(NC(=O)c2ccc(C)c(Oc3ccnc(CN[C@@H]4CCOC4)c3)c2)cc(C(C)(C)C)cc1NS(C)(=O)=O [8(15)]          95.9
4  COc1c(NC(=O)c2ccc(C)c(Oc3cc(CC4CCNCC4)ncn3)c2)cc(C(C)(C)C)cc1NS(C)(=O)=O [5(18)]          98.7
5  COc1c(NC(=O)c2ccc(C)c(Oc3ccnc(CNCCN(C)C)n3)c2)cc(C(C)(C)C)cc1NS(C)(=O)=O [8(25)]          98.6
6  COc1c(NC(=O)c2ccc(C)c(Oc3cc(N4CCNCC4)ncn3)c2)cc(C(C)(C)C)cc1NS(C)(=O)=O [5(1)]          96.8

* * *

# EXPERIMENTAL_SYSTEM: p38 MAP-kinase (Homo sapiens)
# Sequence (Q16539 whole entry): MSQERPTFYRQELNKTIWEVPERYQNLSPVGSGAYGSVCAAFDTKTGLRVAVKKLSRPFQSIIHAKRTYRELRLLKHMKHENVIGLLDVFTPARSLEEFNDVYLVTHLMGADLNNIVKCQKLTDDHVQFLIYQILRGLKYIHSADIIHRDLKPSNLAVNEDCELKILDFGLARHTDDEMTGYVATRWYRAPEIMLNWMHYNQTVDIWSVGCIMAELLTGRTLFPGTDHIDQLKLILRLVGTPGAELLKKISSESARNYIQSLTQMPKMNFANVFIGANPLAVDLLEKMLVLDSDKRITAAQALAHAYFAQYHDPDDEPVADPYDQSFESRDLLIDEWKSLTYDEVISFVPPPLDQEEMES
# PROTOCOL: Enzymatic assay: inhibition of p38 MAP-kinase (phosphorylation of GST-tagged ATF2, chemoluminescence bead readout)
# Format: biochemical
# SETUP_CONDITIONS: inhibitor 1 μM; activated p38 MAP-kinase 1 nM; 4 h preincubation; ATP 100 μM; ATF2 10 nM; read-out: % inhibitory effect at 1 μM
QUANTITY_NAME: inhibition at 1 µM (%)

                            chemical_string       quantity_name  u  result_value
0  COc1c(NC(=O)c2ccc(C)c(Oc3cc(CN4CCN(C)CC4)ncn3)c2)cc(C(C)(C)C)cc1NS(C)(=O)=O  inhibition at 1 µM  %          98.7
1  COc1c(NC(=O)c2ccc(C)c(Oc3cc(N4CCOCC4)ncn3)c2)cc(C(C)(C)C)cc1NS(C)(=O)=O  inhibition at 1 µM  %          97.4
2  COc1c(NC(=O)c2ccc(C)c(Oc3cc(CN4CCNCC4)ncn3)c2)cc(C(C)(C)C)cc1NS(C)(=O)=O  inhibition at 1 µM  %          97.8

[I] COc1c(NC(=O)c2ccc(Cl)c(Oc3cc(CN4CCCNCC4)ncn3)c2)cc(C(C)(C)C)cc1NS(C)(=O)=O
[II] CNCc1cc(Oc2cc(C(=O)Nc3cc(C(C)(C)C)cc(NS(C)(=O)=O)c3OC)ccc2C)ncn1
[ask] Sorting by inhibition at 1 µM in descending order, would I or II appear first? Use the label to indicate which entry you chose.
[reply] I
(I: 99.3%, II: 55.9%)

[P] COc1c(NC(=O)c2ccc(C)c(Oc3cc(C(=O)N4CCNCC4)ncn3)c2)cc(C(C)(C)C)cc1NS(C)(=O)=O
[Q] COc1c(NC(=O)c2ccc(C(F)(F)F)c(Oc3ccnc(N4CCNCC4)n3)c2)cc(C(C)(C)C)cc1NS(C)(=O)=O
[ask] Sorting by inhibition at 1 µM in descending order, would P or Q appear first? Use the label to indicate which entry you chose.
[reply] P
(P: 93.2%, Q: 45.3%)
